Target: canine CD3 on canine T cells (canine PBMC) (canine, UniProt P27597 22-202)
Sequence (P27597 22-202 limits assumed, chain 1 of 3): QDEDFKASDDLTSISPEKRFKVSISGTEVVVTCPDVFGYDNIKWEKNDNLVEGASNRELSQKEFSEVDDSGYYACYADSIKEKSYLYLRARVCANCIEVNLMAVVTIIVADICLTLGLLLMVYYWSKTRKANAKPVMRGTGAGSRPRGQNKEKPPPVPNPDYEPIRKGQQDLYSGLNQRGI
Sequence (chain, as listed by the source limits assumed, chain 2 of 3): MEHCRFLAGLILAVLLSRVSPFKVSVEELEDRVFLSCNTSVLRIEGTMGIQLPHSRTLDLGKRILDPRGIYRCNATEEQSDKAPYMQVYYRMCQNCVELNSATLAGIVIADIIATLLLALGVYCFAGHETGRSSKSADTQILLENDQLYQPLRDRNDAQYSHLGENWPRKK
Sequence (chain, as listed by the source limits assumed, chain 3 of 3): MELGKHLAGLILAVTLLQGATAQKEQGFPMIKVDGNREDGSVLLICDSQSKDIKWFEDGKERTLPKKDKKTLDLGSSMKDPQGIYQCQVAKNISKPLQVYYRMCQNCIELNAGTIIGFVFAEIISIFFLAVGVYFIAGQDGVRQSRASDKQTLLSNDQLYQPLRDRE
Experiment: cell-based or functional assay
OBSERVED_PROPERTY: CD25 Activation, Day 6, PB
Give bare numbers.

PMX200 (monospecific anti-canine CD3, canine IgG-B effector function deficient Fc) (antibody, V domains shown) VH: ELTLQESGPGLVKPSQTLSLTCIVSGGSVTSSYYWNWIRQSPGRGLEWMGYWTGNTNYNPALQGRIFITADTAKNQFSLQLRSMTTEDTAVYYCARGGYGYHYGMDYWGHGTSVFVSS VL: SYVLTQLPSKSVALKQPAHITCGGDNIGSKRVHWYQQKLGQAPALIISFDNSRPTGIPERFSGANSGNTATLTISGALAEDEADYYCQVWDSTAKASIFGGGTHLTVL = 19.5
PMX194 (monospecific anti-canine CD3, canine IgG-B effector function deficient Fc) (antibody, V domains shown) VH: EVQLVESGGDLVKPGGSLRLSCVASGFTFSNYHMSWVRQAPGKGLQWVAYSNSGRMSTDYADAVKGRFTISRDNAKNTLYLQMNSLRPEDTAVYYCATVIYGLFDYWGQGTLVTVSS VL: DIVMTQTPLSLSVSPGEPASISCKASQSLLYSNGNTYLYWFRQKPGQSPQRLIYKVSKRDSGVPDRFSGSGSGTDFTLRIRRVEADDAGVYYCGQGTQDPYTFSQGTKLEIK = 17.3
PMX177 (monospecific anti-canine CD3, canine IgG-B effector function deficient Fc) (antibody, V domains shown) VH: EVTLQESGPGLVKPSQTLSLTCVVSGGSVTSSFYWNWIRQRPGRGLEWMGYWTGSTNYNPAFQGRISITADTAKNQFSLHLGSMTTDDTAMYYCAREEGSWGRVYFDYWGQGTLVTVSS VL: SYVLTQLPSKNVTLKQPAHITCGGDNIGSKSVHWYQQKLGQAPVLIIYYDSSRPTGIPERFSGANSGNTATLTISGALAEDEADYYCQVWDSSTKTWVFGEGTQLTVL = 12.6
PMX181 (monospecific anti-canine CD3, canine IgG-B effector function deficient Fc) (antibody, V domains shown) VH: ELTLQESGPGLVKPSQTLSLTCIVSGGSVTNNYYWTWIRQRPGRGLEWMGYWTGFTNYNPAFQGRISIIANTAKKQLSLQLSSLTTEDTAVYYCARRAIPTYFDYWGQGTLVTVSS VL: SYVLTQLPSKNVTLKQPAHITCGGDNIGSRSVHWYQQKLGQAPVLIIYYDSSRPTGIPERFSGANSGNTATLTISGALAEDEADYYCQVWDSSASVFGGGTHLTVL = 5.68

Asked: So what does the record say about CD25 Activation, Day 6, PB for PMX196 (monospecific anti-canine CD3, canine IgG-B effector function deficient Fc) (antibody, V domains shown) VH: ELTLQESGPGLVKPSQTLSLTCVVSGGSVTSSYYWNWIRQRPGRGLEWMGYWTGSTIYNPAFQGRISITADTAKNQFSLQLSSMTTEDTAVYFCVRERRMAFGSWGQGTLVIVSS VL: SYVLTQLPSKSVTLKQPAHITCGGDNIGRKSVHWYQQKLGQAPVLIISFDNNRPTGIPERFSGANSGNTATLTISGALAEDEADYYCQVWDSSAKASVFGGGTHLTVL ?
Given back: 23

Values were extracted from patent US20240209086A1.
